Tested on: ACHN renal
Experiment: NCI-60 one-dose screen, 48 h (100 = growth as untreated, 0 = no growth, -100 = all killed)
Settings: 10 µM unless noted
Protocol: Growth inhibition of the ACHN human tumor cell line is measured as a screen for anti-cancer activity. Cells are grown in 96 well plates and exposed to the test compound for 48 hours. Compounds are tested at a single concentration, which is 10^-5 M for most compounds. The reported endpoint is percent growth (GI% or GIPRCNT), where numbers from 0 - 100% represent growth inhibition, and numbers from -100% - 0 represent cell death. For example, a value of 40 represents 60% growth inhibition. […]
Compounds without any hit were thinned out: in the full panel of roughly 83,000, 20% have a hit.
For each entry below, report its growth value.
Quick reminder: number only, in %, skip the unit.

Qu. I'm curious: which growth was measured for "O=S1(=O)c2ccccc2Oc2ccccc21" tested on ACHN renal?
Ans. 99.7

Qu. I'm curious: which growth was measured for "O=C1NC(=O)/C(=C\c2ccncc2)N1" tested on ACHN renal?
Ans. 97.9

Qu. I'm curious: which growth was measured for COC1CC(OC(=O)c2ccc([N+](=O)[O-])cc2)C(COC(=O)c2ccc([N+](=O)[O-])cc2)O1 (centres undefined) tested on ACHN renal?
Ans. 112

Qu. I'm curious: which growth was measured for "NCCCN1CCCC1=O" tested on ACHN renal?
Ans. 113

Qu. I'm curious: which growth was measured for "CCCCCC(=O)OCCC1CCCCC1" tested on ACHN renal?
Ans. 107

Qu. I'm curious: which growth was measured for C=CCC(O)C=C (centres undefined) tested on ACHN renal?
Ans. 100

Qu. I'm curious: which growth was measured for "CCOC(=N)CC(=O)Nc1cccc(C)c1Cl" tested on ACHN renal?
Ans. 105

Qu. I'm curious: which growth was measured for "O=C(CCl)Oc1ccc([N+](=O)[O-])cc1" tested on ACHN renal?
Ans. 109

Qu. I'm curious: which growth was measured for "CCCCCCCCCCCCCCCCCCSC(=N)N" tested on ACHN renal?
Ans. 69.9

Qu. I'm curious: which growth was measured for "NNC(=O)CCCCl" tested on ACHN renal?
Ans. 114

Qu. I'm curious: which growth was measured for "Nc1cc2c(cc1Cl)C(=O)c1ccccc1C2=O" tested on ACHN renal?
Ans. 3.29

Qu. I'm curious: which growth was measured for "Nc1ccc(F)c(Cl)c1F" tested on ACHN renal?
Ans. 106

Qu. I'm curious: which growth was measured for "CSc1nc2[nH]ncc2c(=O)[nH]1" tested on ACHN renal?
Ans. 110

Qu. I'm curious: which growth was measured for "COc1cc(CC#N)c([N+](=O)[O-])cc1OC" tested on ACHN renal?
Ans. 109

###

For each entry below, report its growth value.
Tested on: ACHN renal
Assay: NCI-60 one-dose screen, 48 h (100 = growth as untreated, 0 = no growth, -100 = all killed)
Settings: 10 µM unless noted
About 83,000 compounds went through this panel and 20% of them were active in at least one assay; those are over-represented in the sample as a whole. The source made the active and inactive calls. The calls were made as follows: active = growth percent below 10; inactive = the rest.

Qu. Reported growth for "O=S(=O)(O)c1ccc(O)c(C2CCCCC2)c1" : what is it?
Ans. 105% (inactive)

Qu. Reported growth for "Clc1ncnc2nc[nH]c12" : what is it?
Ans. 96.2% (inactive)

Qu. Reported growth for "CC(=O)c1cccs1" : what is it?
Ans. 102% (inactive)

Qu. Reported growth for "Cc1ccc2nc(-c3ccc(N=Cc4ccccc4O)cc3)sc2c1" : what is it?
Ans. 90.6% (inactive)

Qu. Reported growth for "O=C(NCc1ccccc1)c1cccc([N+](=O)[O-])c1" : what is it?
Ans. 102% (inactive)

Qu. Reported growth for "CCOc1ccccc1NC(=O)CCl" : what is it?
Ans. 108% (inactive)

Qu. Reported growth for O=C1NC(=O)C(c2ccccc2)O1 (stereo not drawn) : what is it?
Ans. 99.2% (inactive)

Qu. Reported growth for "COc1cc(N)c2ncccc2c1Cl" : what is it?
Ans. 91.2% (inactive)

Qu. Reported growth for "c1ccc2c(NCCCN3CCN(CCCNc4c5ccccc5nc5ccccc45)CC3)c3ccccc3nc2c1" : what is it?
Ans. -60.9% [100 µM] (active)

Qu. Reported growth for "Cc1ccc([N+](=O)[O-])c(C)n1" : what is it?
Ans. 91.5% (inactive)

Qu. Reported growth for "CC(=O)N(CCCCCCN(C(C)=O)C(C)=O)C(C)=O" : what is it?
Ans. 104% [100 µM] (inactive)

Qu. Reported growth for "O=C(c1ccccc1)c1ccc(-c2ccc(O)cc2)cc1" : what is it?
Ans. 50.4% (inactive)

Qu. Reported growth for "CCOC(=O)CO" : what is it?
Ans. 109% (inactive)

Qu. Reported growth for "COC(=O)c1ccc([N+](=O)[O-])c(C)c1" : what is it?
Ans. 97.1% (inactive)

Qu. Reported growth for "O=S(=O)(OCCOS(=O)(=O)c1ccccc1)c1ccccc1" : what is it?
Ans. 105% (inactive)

Qu. Reported growth for "NC(=O)c1cc2c3ccccc3ccn2c1-c1ccccc1" : what is it?
Ans. 23.6% (inactive)

Qu. Reported growth for "O=C(c1ccccc1O)N1CCCC1" : what is it?
Ans. 94.4% (inactive)

Qu. Reported growth for "COc1cc(C(=O)O)c(O)c(C(C)(C)C)c1" : what is it?
Ans. 109% (inactive)

Qu. Reported growth for "COc1cccc(N=CNc2cccc(OC)c2)c1" : what is it?
Ans. 86.2% (inactive)

Qu. Reported growth for "CCCCOC(=O)c1ccc(NC(=O)CCl)cc1" : what is it?
Ans. -17.1% (active)

Qu. Reported growth for "Cc1[nH]c(=S)[nH]c(=O)c1C" : what is it?
Ans. 96.6% (inactive)

Qu. Reported growth for "O=C(NCCc1ccccc1)/C(=C\c1ccc(Cl)cc1Cl)NC(=O)c1ccccc1" : what is it?
Ans. 98.9% (inactive)

Qu. Reported growth for CC(CC(CCC(=O)O)(c1ccccc1)c1ccccc1)N(C)C (stereo not drawn) : what is it?
Ans. 106% (inactive)

Qu. Reported growth for "Oc1cc2ccccc2c(-c2c(O)c(O)cc3ccccc23)c1O" : what is it?
Ans. 23.2% (inactive)

Qu. Reported growth for "Clc1cccc(Cl)c1CSc1nc2ccccc2n2cccc12" : what is it?
Ans. 97.3% (inactive)

Qu. Reported growth for "Nc1ncc([N+](=O)[O-])cn1" : what is it?
Ans. 109% (inactive)

Qu. Reported growth for "CC(C)Sc1ncnc2nc[nH]c12" : what is it?
Ans. 99.6% (inactive)

Qu. Reported growth for "CCOC(=O)c1ccc(NC(C)=O)o1" : what is it?
Ans. 108% (inactive)
